assayed_system: panel of 442 kinases (Homo sapiens)
Construct: purchased KINOMEscan
Assay type: binding
protocol_conditions: Compound Concentration 10 µM
measured_parameter: KINOMEscan: PLK4
The response must contain the number and no unit.

# KINOMEscan: PLK4 measured on panel of 442 kinases (Homo sapiens) for item COc1cc(C(=O)N2CCC(N3CCN(C)CC3)CC2)ccc1Nc1ncc2c(n1)N1CCc3cccc(c31)C(=O)N2C [Compound 24] = 0.3

# value of KINOMEscan: PLK4, panel of 442 kinases (Homo sapiens), item CCOc1cc(C(=O)N2CCC(N3CCN(C)CC3)CC2)ccc1Nc1ncc2c(n1)N(C1CCCC1)c1ccccc1C(=O)N2C [Compound 26] = 5.1

Field KINOMEscan: PLK4 (system: panel of 442 kinases (Homo sapiens)) for entry COc1cc(C(=O)N2CCC(N3CCN(C)CC3)CC2)ccc1Nc1ncc2c(n1)N(C)c1ccccc1C(=O)N2C [15 (LRRK2-IN-1)] = 0

Form field KINOMEscan: PLK4 for item COc1cc(C(=O)N2CCC(N3CCN(C)CC3)CC2)ccc1Nc1ncc2c(n1)N(C1CCCC1)c1ccccc1C(=O)N2C [Compound 25] on panel of 442 kinases (Homo sapiens): 0.25

###

assayed_system: panel of 442 kinases (Homo sapiens, UniProt O75582)
Construct: purchased KINOMEscan
Sequence (O75582 whole entry): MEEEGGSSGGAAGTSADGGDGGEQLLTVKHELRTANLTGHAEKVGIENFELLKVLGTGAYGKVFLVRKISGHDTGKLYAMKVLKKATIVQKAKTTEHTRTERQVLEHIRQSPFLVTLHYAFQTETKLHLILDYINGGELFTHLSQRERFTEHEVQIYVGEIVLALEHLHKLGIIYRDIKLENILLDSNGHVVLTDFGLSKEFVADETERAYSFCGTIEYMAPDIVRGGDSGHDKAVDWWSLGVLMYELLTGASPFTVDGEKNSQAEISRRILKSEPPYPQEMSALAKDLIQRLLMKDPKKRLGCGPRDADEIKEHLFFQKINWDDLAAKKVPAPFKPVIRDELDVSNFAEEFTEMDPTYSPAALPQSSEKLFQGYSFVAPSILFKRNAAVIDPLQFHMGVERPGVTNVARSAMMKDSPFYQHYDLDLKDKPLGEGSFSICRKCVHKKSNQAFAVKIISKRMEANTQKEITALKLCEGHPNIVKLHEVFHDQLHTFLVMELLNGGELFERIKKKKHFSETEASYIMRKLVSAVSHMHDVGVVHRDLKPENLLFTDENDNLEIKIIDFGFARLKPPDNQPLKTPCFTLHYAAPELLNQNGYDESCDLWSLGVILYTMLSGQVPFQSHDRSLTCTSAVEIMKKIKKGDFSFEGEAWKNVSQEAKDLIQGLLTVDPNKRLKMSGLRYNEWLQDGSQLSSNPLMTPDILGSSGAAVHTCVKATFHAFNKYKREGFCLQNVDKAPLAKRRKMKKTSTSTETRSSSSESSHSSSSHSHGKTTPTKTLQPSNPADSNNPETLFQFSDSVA
Type: binding
protocol_conditions: Compound Concentration 10 µM
measured_parameter: KINOMEscan: RPS6KA5(Kin.Dom.2-C-terminal)
When you answer, write just the number.

// field: KINOMEscan: RPS6KA5(Kin.Dom.2-C-terminal); key: `CCOc1cc(C(=O)N2CCC(N3CCN(C)CC3)CC2)ccc1Nc1ncc2c(n1)N(C1CCCC1)c1ccccc1C(=O)N2C` ; value = 86

Field KINOMEscan: RPS6KA5(Kin.Dom.2-C-terminal) (entry `COc1cc(C(=O)N2CCC(N3CCN(C)CC3)CC2)ccc1Nc1ncc2c(n1)N1CCc3cccc(c31)C(=O)N2C` ) reads 43

Lab book: KINOMEscan: RPS6KA5(Kin.Dom.2-C-terminal) of `COc1cc(C(=O)N2CCC(N3CCN(C)CC3)CC2)ccc1Nc1ncc2c(n1)N(C1CCCC1)c1ccccc1C(=O)N2C` noted as 100

KINOMEscan: RPS6KA5(Kin.Dom.2-C-terminal) in this record for `COc1cc(C(=O)N2CCC(N3CCN(C)CC3)CC2)ccc1Nc1ncc2c(n1)N(C)c1ccccc1C(=O)N2C` : 92

###

assayed_system: panel of 442 kinases (Homo sapiens, UniProt Q13555)
Construct: purchased KINOMEscan
Sequence (Q13555 whole entry): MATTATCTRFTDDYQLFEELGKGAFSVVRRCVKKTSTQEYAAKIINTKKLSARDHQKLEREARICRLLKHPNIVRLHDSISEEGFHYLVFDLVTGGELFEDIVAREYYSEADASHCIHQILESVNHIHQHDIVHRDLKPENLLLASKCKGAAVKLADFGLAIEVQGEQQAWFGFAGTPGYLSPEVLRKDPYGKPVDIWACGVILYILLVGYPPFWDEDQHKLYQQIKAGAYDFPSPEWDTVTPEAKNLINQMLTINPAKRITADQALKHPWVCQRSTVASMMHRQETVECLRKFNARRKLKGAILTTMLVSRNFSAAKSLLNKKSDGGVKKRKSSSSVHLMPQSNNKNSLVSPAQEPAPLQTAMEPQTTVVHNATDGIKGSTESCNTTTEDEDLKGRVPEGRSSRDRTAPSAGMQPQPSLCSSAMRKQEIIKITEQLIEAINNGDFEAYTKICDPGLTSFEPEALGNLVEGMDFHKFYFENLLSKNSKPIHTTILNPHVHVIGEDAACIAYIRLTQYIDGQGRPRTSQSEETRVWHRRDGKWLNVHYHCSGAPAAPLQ
Type: binding
Parameters: unit: % Ctrl
protocol_conditions: Compound Concentration 10 µM
Assignment: determine reported KINOMEscan: CAMK2G for the given compounds.
API doc: respond with a numeric literal and nothing else, no unit.

Lab book: KINOMEscan: CAMK2G of `COc1cc(C(=O)N2CCC(N3CCN(C)CC3)CC2)ccc1Nc1ncc2c(n1)N(C)c1ccccc1C(=O)N2C` noted as 47

Record `COc1cc(C(=O)N2CCC(N3CCN(C)CC3)CC2)ccc1Nc1ncc2c(n1)N1CCc3cccc(c31)C(=O)N2C` . Reported KINOMEscan: CAMK2G: 76

The recorded KINOMEscan: CAMK2G for `COc1cc(C(=O)N2CCC(N3CCN(C)CC3)CC2)ccc1Nc1ncc2c(n1)N(C1CCCC1)c1ccccc1C(=O)N2C` is 98

compound `CCOc1cc(C(=O)N2CCC(N3CCN(C)CC3)CC2)ccc1Nc1ncc2c(n1)N(C1CCCC1)c1ccccc1C(=O)N2C` , KINOMEscan: CAMK2G observed: 94

###

For each of the compounds below, state its % Ctrl, ZAK.
assayed_system: panel of 442 kinases (Homo sapiens, UniProt Q9NYL2)
Construct: purchased KINOMEscan
Sequence (Q9NYL2 whole entry): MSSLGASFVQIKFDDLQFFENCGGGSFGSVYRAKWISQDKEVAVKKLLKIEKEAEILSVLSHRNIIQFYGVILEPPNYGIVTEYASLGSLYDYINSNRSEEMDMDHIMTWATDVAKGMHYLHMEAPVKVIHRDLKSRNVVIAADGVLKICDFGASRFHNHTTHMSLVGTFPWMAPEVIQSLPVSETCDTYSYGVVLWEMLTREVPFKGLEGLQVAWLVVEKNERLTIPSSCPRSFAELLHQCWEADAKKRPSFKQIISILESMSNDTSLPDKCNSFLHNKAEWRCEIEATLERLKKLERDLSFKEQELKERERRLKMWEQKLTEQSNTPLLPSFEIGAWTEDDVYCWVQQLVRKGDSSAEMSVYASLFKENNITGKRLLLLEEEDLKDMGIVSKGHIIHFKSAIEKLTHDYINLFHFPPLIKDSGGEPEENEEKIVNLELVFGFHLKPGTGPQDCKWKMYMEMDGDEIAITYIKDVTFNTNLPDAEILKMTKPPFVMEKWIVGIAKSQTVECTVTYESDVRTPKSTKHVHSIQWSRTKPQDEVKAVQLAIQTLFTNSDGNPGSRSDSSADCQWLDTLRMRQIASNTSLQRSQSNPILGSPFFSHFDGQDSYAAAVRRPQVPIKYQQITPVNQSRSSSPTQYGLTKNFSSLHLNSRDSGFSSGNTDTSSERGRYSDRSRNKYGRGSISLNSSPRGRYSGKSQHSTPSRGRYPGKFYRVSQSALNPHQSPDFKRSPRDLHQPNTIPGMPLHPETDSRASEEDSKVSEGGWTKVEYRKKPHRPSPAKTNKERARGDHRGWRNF
Assay type: binding
protocol_conditions: kinase ZAK; compound concentration 10 µM
A number alone suffices; assume % Ctrl.

Entry `COc1cc(C(=O)N2CCC(N3CCN(C)CC3)CC2)ccc1Nc1ncc2c(n1)N(C)c1ccccc1C(=O)N2C` , % Ctrl, ZAK reported as 99

Summary for this compound, `COc1cc(C(=O)N2CCC(N3CCN(C)CC3)CC2)ccc1Nc1ncc2c(n1)N1CCc3cccc(c31)C(=O)N2C` : % Ctrl, ZAK is 88

The compound `CCOc1cc(C(=O)N2CCC(N3CCN(C)CC3)CC2)ccc1Nc1ncc2c(n1)N(C1CCCC1)c1ccccc1C(=O)N2C` showed % Ctrl, ZAK equal to 100

Record summary for `COc1cc(C(=O)N2CCC(N3CCN(C)CC3)CC2)ccc1Nc1ncc2c(n1)N(C1CCCC1)c1ccccc1C(=O)N2C` : reported % Ctrl, ZAK = 100

###

assayed_system: panel of 442 kinases (Homo sapiens, UniProt P00519, T315I)
Construct: purchased KINOMEscan
Assay type: binding
protocol_conditions: Compound Concentration 10 µM
What KINOMEscan: ABL1(T315I)-phosphorylated was measured for each of the following?
Number only, no unit.

Entry CCOc1cc(C(=O)N2CCC(N3CCN(C)CC3)CC2)ccc1Nc1ncc2c(n1)N(C1CCCC1)c1ccccc1C(=O)N2C [Compound 26] ; KINOMEscan: ABL1(T315I)-phosphorylated = 92

The compound identified as COc1cc(C(=O)N2CCC(N3CCN(C)CC3)CC2)ccc1Nc1ncc2c(n1)N1CCc3cccc(c31)C(=O)N2C [Compound 24] registered its KINOMEscan: ABL1(T315I)-phosphorylated at 100

What the record says about COc1cc(C(=O)N2CCC(N3CCN(C)CC3)CC2)ccc1Nc1ncc2c(n1)N(C)c1ccccc1C(=O)N2C [15 (LRRK2-IN-1)] : KINOMEscan: ABL1(T315I)-phosphorylated is 58

response.value for COc1cc(C(=O)N2CCC(N3CCN(C)CC3)CC2)ccc1Nc1ncc2c(n1)N(C1CCCC1)c1ccccc1C(=O)N2C [Compound 25] (field: KINOMEscan: ABL1(T315I)-phosphorylated) = 100

###

assayed_system: panel of 442 kinases (Homo sapiens, UniProt Q02763)
Construct: purchased KINOMEscan
Sequence (Q02763 23-1124): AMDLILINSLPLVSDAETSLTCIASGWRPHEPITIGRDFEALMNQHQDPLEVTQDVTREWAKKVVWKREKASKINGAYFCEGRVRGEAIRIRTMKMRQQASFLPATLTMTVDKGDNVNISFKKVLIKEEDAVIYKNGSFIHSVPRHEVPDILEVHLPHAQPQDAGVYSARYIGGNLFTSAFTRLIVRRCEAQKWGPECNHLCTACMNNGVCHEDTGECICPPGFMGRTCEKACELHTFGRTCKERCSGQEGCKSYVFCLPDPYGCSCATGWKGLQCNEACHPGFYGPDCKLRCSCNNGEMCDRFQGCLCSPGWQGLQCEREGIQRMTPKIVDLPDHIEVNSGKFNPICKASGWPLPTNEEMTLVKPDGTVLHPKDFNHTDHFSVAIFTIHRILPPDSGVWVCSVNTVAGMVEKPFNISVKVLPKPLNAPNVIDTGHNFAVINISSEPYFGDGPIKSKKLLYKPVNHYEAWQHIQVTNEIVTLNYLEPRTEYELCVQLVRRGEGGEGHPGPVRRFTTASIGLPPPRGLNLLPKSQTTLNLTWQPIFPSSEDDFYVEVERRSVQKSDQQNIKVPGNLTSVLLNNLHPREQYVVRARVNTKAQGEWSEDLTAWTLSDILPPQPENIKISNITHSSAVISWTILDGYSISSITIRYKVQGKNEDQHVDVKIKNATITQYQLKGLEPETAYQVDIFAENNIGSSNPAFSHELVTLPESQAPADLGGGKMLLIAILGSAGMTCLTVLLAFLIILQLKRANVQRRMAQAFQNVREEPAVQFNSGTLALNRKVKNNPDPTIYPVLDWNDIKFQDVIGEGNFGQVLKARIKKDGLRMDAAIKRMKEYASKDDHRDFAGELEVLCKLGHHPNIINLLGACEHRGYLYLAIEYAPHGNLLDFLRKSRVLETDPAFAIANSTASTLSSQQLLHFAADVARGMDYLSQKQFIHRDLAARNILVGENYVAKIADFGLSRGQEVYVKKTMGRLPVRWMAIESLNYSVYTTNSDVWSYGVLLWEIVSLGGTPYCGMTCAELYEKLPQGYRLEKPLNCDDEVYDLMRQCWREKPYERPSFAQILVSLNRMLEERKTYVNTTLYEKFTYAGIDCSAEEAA
Type: binding
protocol_conditions: kinase TIE2; compound concentration 10 µM
measured_parameter: % Ctrl, TIE2 (% Ctrl)
State the answer as a number, implicitly in % Ctrl.

Entry `CCOc1cc(C(=O)N2CCC(N3CCN(C)CC3)CC2)ccc1Nc1ncc2c(n1)N(C1CCCC1)c1ccccc1C(=O)N2C` ; % Ctrl, TIE2 = 100

In plain terms, `COc1cc(C(=O)N2CCC(N3CCN(C)CC3)CC2)ccc1Nc1ncc2c(n1)N(C)c1ccccc1C(=O)N2C` has a documented % Ctrl, TIE2 of 100

Input `COc1cc(C(=O)N2CCC(N3CCN(C)CC3)CC2)ccc1Nc1ncc2c(n1)N1CCc3cccc(c31)C(=O)N2C` . Output % Ctrl, TIE2: 79

Summary for this molecule, `COc1cc(C(=O)N2CCC(N3CCN(C)CC3)CC2)ccc1Nc1ncc2c(n1)N(C1CCCC1)c1ccccc1C(=O)N2C` : % Ctrl, TIE2 is 100

###

Hi there, I'd appreciate the recorded % Ctrl, SBK1 for every entry that follows.
assayed_system: panel of 442 kinases (Homo sapiens, UniProt Q52WX2)
Construct: purchased KINOMEscan
Sequence (Q52WX2 whole entry): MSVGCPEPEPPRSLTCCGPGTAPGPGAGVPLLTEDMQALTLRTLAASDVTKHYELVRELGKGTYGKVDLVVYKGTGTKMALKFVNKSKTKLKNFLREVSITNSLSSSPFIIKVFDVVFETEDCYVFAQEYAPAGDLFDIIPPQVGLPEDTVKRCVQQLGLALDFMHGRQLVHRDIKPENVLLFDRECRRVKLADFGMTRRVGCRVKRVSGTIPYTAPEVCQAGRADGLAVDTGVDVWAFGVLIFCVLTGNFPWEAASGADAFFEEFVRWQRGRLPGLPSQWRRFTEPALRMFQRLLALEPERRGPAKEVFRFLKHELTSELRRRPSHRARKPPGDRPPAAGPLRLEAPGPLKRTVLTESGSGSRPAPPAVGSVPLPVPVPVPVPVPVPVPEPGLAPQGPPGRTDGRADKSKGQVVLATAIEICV
Format: binding
protocol_conditions: kinase SBK1; compound concentration 10 µM
// unit must come after the numeric part

So, COc1cc(C(=O)N2CCC(N3CCN(C)CC3)CC2)ccc1Nc1ncc2c(n1)N(C)c1ccccc1C(=O)N2C [15 (LRRK2-IN-1)] ? Its % Ctrl, SBK1 was 100 % Ctrl

response.value for COc1cc(C(=O)N2CCC(N3CCN(C)CC3)CC2)ccc1Nc1ncc2c(n1)N(C1CCCC1)c1ccccc1C(=O)N2C [Compound 25] (field: % Ctrl, SBK1) = 72 % Ctrl

The compound identified as CCOc1cc(C(=O)N2CCC(N3CCN(C)CC3)CC2)ccc1Nc1ncc2c(n1)N(C1CCCC1)c1ccccc1C(=O)N2C [Compound 26] registered its % Ctrl, SBK1 at 99 % Ctrl

Record COc1cc(C(=O)N2CCC(N3CCN(C)CC3)CC2)ccc1Nc1ncc2c(n1)N1CCc3cccc(c31)C(=O)N2C [Compound 24] , field % Ctrl, SBK1: 80 % Ctrl

###

assayed_system: panel of 442 kinases (Homo sapiens)
Construct: purchased KINOMEscan
Type: binding
protocol_conditions: kinase STK16; compound concentration 10 µM
Consider the following molecules; for each one, report its % Ctrl, STK16.
Kindly provide the numeric value in % Ctrl only, without the unit symbol.

Record `CCOc1cc(C(=O)N2CCC(N3CCN(C)CC3)CC2)ccc1Nc1ncc2c(n1)N(C1CCCC1)c1ccccc1C(=O)N2C` , field % Ctrl, STK16: 99

Value of % Ctrl, STK16 reported for the molecule `COc1cc(C(=O)N2CCC(N3CCN(C)CC3)CC2)ccc1Nc1ncc2c(n1)N(C)c1ccccc1C(=O)N2C` is 62

Recorded result, `COc1cc(C(=O)N2CCC(N3CCN(C)CC3)CC2)ccc1Nc1ncc2c(n1)N(C1CCCC1)c1ccccc1C(=O)N2C` , % Ctrl, STK16: 75

Form: molecule = `COc1cc(C(=O)N2CCC(N3CCN(C)CC3)CC2)ccc1Nc1ncc2c(n1)N1CCc3cccc(c31)C(=O)N2C` ; % Ctrl, STK16 = 50
